# assayOverview: Caspase-3/7 induction in HepG2 cells by small molecules, qHTS cell viability counter screen (AID 1346981); further: nearly all actives have a fitted effect of over 30% in size
# testConditions: CellTiter-Fluor fluorescence, 17 h; series mostly up to 92.4 µM
Results filed as inconclusive are left out. Calls of active or inactive are those of the source. The call rests on the fitted dose curve; in most records, active means well fitted cell-killing curve with a large enough effect in the repeat runs; inconclusive means weak or mixed curves, or effect the other way; inactive means flat fitted curve, though single readings scatter.
// allowed return values: Y for active, N for inactive

Worked examples, 5 compounds total:
{"compound": "[Cl-].[Cl-].[Sn+2]", "classification": "N"}
{"compound": "[C-]1=CC=CC1.[Cl][Zr+2][Cl].c1cc[cH-]c1", "classification": "N"}
{"compound": "CCC(C)c1cccc(C(C)CC)c1O (stereo not given)", "classification": "N"}
{"compound": "Cc1ccc([N+](=O)[O-])[c]2c1[O][Hg]2", "classification": "Y"}
{"compound": "CN1C(=O)[C@@H](NC(=O)c2cc3ccccc3[nH]2)N=C(c2ccccc2)c2ccccc21", "classification": "N"}

Which result was noted for this compound in the test: "CCCN"
N

Which result was noted for this compound in the test: "CNC(=O)/C=C(\C)OP(=O)(OC)OC"
N

Returns: the outcome recorded for "O.O.O.O.O.O.O=S(=O)([O-])[O-].[Ni+2]" in this assay.
N

How was "Fc1ccc(C(OCCN2CCN(CCCc3ccccc3)CC2)c2ccc(F)cc2)cc1" classified in this test?
Y

Dear colleague, could you share the recorded outcome for "O=C(N[C@H]1N=C(c2ccccc2F)c2cccc3c2N(CC3)C1=O)c1cc2ccccc2[nH]1" when you have a moment?
N

Kindly provide the recorded test outcome for the following compound: CCC(C)Nc1c([N+](=O)[O-])cc(C(C)(C)C)cc1[N+](=O)[O-] (stereo not given)
N

Recorded call for "CCN(CC)C(=S)S" ?
N

Record request — test call for "ClC1=C(Cl)[C@]2(Cl)[C@@H]3[C@H]4C[C@H]([C@@H]5O[C@H]45)[C@@H]3[C@@]1(Cl)C2(Cl)Cl"
N

Short answer needed: outcome of this test for "O=C(Cl)c1ccccc1F" ?
N

Each compound tested received a call. Report the one for "C=C(C)C(=O)[O][Sn]([CH2]CCC)([CH2]CCC)[CH2]CCC" .
Y

Dear colleague, could you share the recorded outcome for "CC(=O)[O-].CC(=O)[O-].O.O.[Zn+2]" when you have a moment?
N

What did the test return for "CCN(CC)C(=O)N[C@@H]1C=C2c3cccc4[nH]cc(c34)C[C@@H]2N(C)C1" ?
N

----------
# assayOverview: qHTS assay to identify small molecule agonists of the sonic hedgehog signaling (Shh) pathway - cell viability counter screen (AID 1259366); further: nearly all actives have a fitted effect of over 50% in size
# testConditions: NIH/3T3 Gli1-Luc viability, CellTiter-Fluor, 24 h; series mostly up to 92.4 µM
Records with an inconclusive call do not appear. Activity calls are given as the source filed them. Calls come from the whole dose curve; as a rule, active = well fitted cell-killing curve with a large enough effect in the repeat runs; inconclusive = weak or mixed curves, or effect the other way; inactive = flat fitted curve, though single readings scatter.
Outcomes you can answer with include only these: active, inactive

Here are 5 compounds together with their reported answers.
{"chemicalString": "[F][Sn]([c]1ccccc1)([c]1ccccc1)[c]1ccccc1", "classification": "active"}
{"chemicalString": "CN=C=O", "classification": "inactive"}
{"chemicalString": "CCOP(=S)(OCC)Oc1cc(C)nc(N(CC)CC)n1", "classification": "inactive"}
{"chemicalString": "N#Cc1ccc(N(CC(N)=O)CC(F)(F)F)cc1C(F)(F)F", "classification": "inactive"}
{"chemicalString": "O=C(NC(=O)c1c(F)cccc1F)Nc1ccc(Oc2ccc(C(F)(F)F)cc2Cl)cc1F", "classification": "inactive"}

What was the test verdict on "CO/N=C(/C1=NOCCO1)c1ccccc1Oc1ncnc(Oc2ccccc2Cl)c1F" ?
inactive

Entry "C=CCBr" : call = ?
inactive

What was the test verdict on "CCN(CC)CCc1c[nH]c2ccccc12" ?
inactive

Call for entry "S=C=NCCc1ccccc1" :
inactive
